Listed binders paired with reported Kd
SYSTEM TESTED: T1, soluble Homo sapiens CD131 comprising a C-terminal 6xHis tag (human, UniProt P32927 17-438)
T1 construct: truncated after Ser438, C-terminal 6xHis; also called shCD131; shβc
T1 sequence: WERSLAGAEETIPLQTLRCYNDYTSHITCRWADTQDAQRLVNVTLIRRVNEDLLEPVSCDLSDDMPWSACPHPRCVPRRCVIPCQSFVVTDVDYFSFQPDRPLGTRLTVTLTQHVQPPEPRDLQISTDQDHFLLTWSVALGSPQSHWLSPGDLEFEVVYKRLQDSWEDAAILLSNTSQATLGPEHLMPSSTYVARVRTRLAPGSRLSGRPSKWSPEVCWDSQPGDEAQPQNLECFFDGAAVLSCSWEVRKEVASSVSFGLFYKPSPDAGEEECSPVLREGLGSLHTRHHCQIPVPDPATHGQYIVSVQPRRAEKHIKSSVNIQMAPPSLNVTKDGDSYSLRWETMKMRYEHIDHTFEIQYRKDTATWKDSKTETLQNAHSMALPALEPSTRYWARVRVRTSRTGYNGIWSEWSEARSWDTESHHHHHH
METHOD: SPR, Fab over captured shCD131
Please respond with the number in nM and leave the unit unwritten.

Consider the following illustrative entries.
1. 9A2-VR24.122 Fab (Fab, V domains shown, recombinant Fab) VH: EVQLLESGGGLVQPGGSLRLSCAASGFTFPWYRVHWVRQAPGKGLEWVSSIRSSGGFTYYNSEVKGRFTISRDNSKNTLYLQMNSLRAEDTAVYYCARFYDSFFDIWGQGTMVTVSS VL: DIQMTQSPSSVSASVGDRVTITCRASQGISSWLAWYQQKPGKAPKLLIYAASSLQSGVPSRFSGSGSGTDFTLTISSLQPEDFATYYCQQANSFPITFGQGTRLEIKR :: 0.353
2. 9A2-VR39.177 Fab (Fab, V domains shown, recombinant Fab) VH: EVQLLESGGGLVQPGGSLRLSCAASGFTFSHYHMLWVRQAPGKGLEWVSSINGRGRVTYYALEYKKRFTISRDNSKNTLYLQMNSLRAEDTAVYYCARFYDSFFDIWGQGTMVTVSS VL: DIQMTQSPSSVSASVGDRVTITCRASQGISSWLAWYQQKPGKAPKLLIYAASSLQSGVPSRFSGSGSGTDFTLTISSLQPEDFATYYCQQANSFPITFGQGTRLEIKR :: 0.15

Next item in the queue.
What measured Kd goes with 9A2-VR24.107 Fab (Fab, V domains shown, recombinant Fab) VH: EVQLLESGGGLVQPGGSLRLSCAASGFTFPWYRVHWVRQAPGKGLEWVSSIRSSGGFPYYNPFVKGRFTISRDNSKNTLYLQMNSLRAEDTAVYYCARFYDSFFDIWGQGTMVTVSS VL: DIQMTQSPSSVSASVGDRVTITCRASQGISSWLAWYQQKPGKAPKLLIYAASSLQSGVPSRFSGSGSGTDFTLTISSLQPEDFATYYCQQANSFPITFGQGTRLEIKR ?
0.183

// provenance: patent US20190062438A1
